The binders listed here are annotated with their pKd.
# Test system: T1, PARD3B_1, Q8TEW8
# T1 sequence (Q8TEW8 196-299, limits assumed, looked up): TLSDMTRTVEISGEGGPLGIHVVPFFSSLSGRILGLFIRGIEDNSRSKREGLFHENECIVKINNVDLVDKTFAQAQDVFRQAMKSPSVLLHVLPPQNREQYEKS
# Test description: holdup assay
# Set-up: key: below the threshold = too weak to quantify, mostly under pKd 3.1 to 4
# Cond: plain residues with an end cap or a label only (N-terminal biotin on a linker: ado-ado)
Experimental readout: pKd

- Binder: "EPQYQPGENL [SRC, P12931]"
  Experimental readout: "pKd"
  Recorded result: 3.91
- Binder: "EDLEDEWEVI [TECPR2, O15040]"
  Experimental readout: "pKd"
  Recorded result: 4.3
